Test system: Wolbachia pipientis
Assay: Anti-Wolbachia Cell-Based Screen
Assay type: functional
Set-up: scale not given: in the data most compounds retested in dose-response had high values
Conditions: 5 µM
In all, about 48,000 compounds went through this assay and about 13,000 (27%) showed an effect of 50% or more. Some of the results follow.
Listing of entries alongside the reported Percent Effect.
readout: Percent Effect (%)

CC(C)c1cc(NC(=O)c2ccc(NC3CC3)nc2)[nH]n1 = -1.016
CC(C)c1cc(NC(=O)c2cccnc2)[nH]n1 = 108.7
Cc1cc(NC(=O)c2ccc(N3CCOCC3)c(C)c2)[nH]n1 = 7.693
CC(C)c1cc(NC(=O)c2ccc(C(=O)NC(C)(C)C)cc2)[nH]n1 = -2.024
Cc1nonc1C1CCCN1C(=O)CCc1cc2n(n1)CCCNC2 (stereo unspecified) = 9.259
Cc1ccc(CN2Cc3ccnn3CC(COCc3cccnc3)C2)o1 (stereo unspecified) = -8.625
Cc1ccc(CNCCOc2ccc(S(C)(=O)=O)cc2)cc1 = 14.5
Cc1cc(C)n2nc(C(=O)N3CCCC4(CCOC4)C3)cc2n1 (stereo unspecified) = -5.928
Cc1ccc(F)c(NS(=O)(=O)c2cc(C(=O)O)oc2C)c1 = 98.71
COCCN1CCN(C(=O)c2ccc(C)cc2F)[C@H]2CS(=O)(=O)C[C@H]21 = 8.657
Cc1ncc(CNc2cnccc2CO)s1 = 7.83
